RUN DESCRIPTION: Half life in Sprague-Dawley rat at 2.5 mg/kg, iv measured for 24 hrs
Assay type: ADME, organism-based
CONDITION SUMMARY: in vivo
PARAMETER: half-life

- GIVEN SMILES: "Cc1ccc(C(=O)Nc2cc(C(=O)O)nn2Cc2ccc(F)cc2)cc1"
  REPORTED MEASUREMENT: "109 min"

---

RUN DESCRIPTION: Clearance in Sprague-Dawley rat at 2.5 mg/kg, iv measured for 24 hrs
Type: ADME, organism-based
CONDITION SUMMARY: in vivo
PARAMETER: clearance (mL/min/kg)

- GIVEN SMILES: "Cc1ccc(C(=O)Nc2cc(C(=O)O)nn2Cc2ccc(F)cc2)cc1"
  REPORTED MEASUREMENT: 16.3

---

Here the recorded half-life at 2 ug/ml is given for each entry.
RUN DESCRIPTION: Metabolic stability in human liver microsomes assessed as half life at 2 ug/ml preincubated for 5 mins followed by NADPH addition and measured upto 45 mins by LC-MS/MS analysis
Format: ADME, Microsome
CONDITION SUMMARY: dose 2 µg/ml, time < 50 min

- GIVEN SMILES: "Cc1ccc(C(=O)Nc2cc(C(=O)O)nn2Cc2ccc(F)cc2)cc1"
  half-life at 2 ug/ml (min): 1260
- GIVEN SMILES: "O=C(O)c1cc(-c2ccc(C3CCNCC3)cc2)c2ccc(-c3ccc(C(F)(F)F)cc3)cc2c1"
  half-life at 2 ug/ml (min): 46

---

RUN DESCRIPTION: Tmax in Sprague-Dawley rat at 10 mg/kg, po measured for 24 hrs
Assay type: ADME, organism-based
CONDITION SUMMARY: in vivo

- GIVEN SMILES: "Cc1ccc(C(=O)Nc2cc(C(=O)O)nn2Cc2ccc(F)cc2)cc1"
  Tmax / min: 15

---

RUN DESCRIPTION: Aqueous solubility of the compound in simulated intestinal fluid without trypsin at pH 6.8 incubated for 24 hrs by UV-3000 absorption spectrometry analysis
Format: physicochemical
CONDITION SUMMARY: simulated intestinal fluid without trypsin, pH 6.8

- COMPOUND: "O=C(O)c1cc(-c2ccc(C3CCNCC3)cc2)c2ccc(-c3ccc(C(F)(F)F)cc3)cc2c1 [PPTN]"
  solubility at 24 h: "< 5 µg/mL"

---

RUN DESCRIPTION: Cmax in Sprague-Dawley rat at 10 mg/kg, po measured for 24 hrs
Assay type: ADME, organism-based
Set-up: time 24 hrs, dose 10 mg/kg, route po
CONDITION SUMMARY: in vivo

- GIVEN SMILES: "Cc1ccc(C(=O)Nc2cc(C(=O)O)nn2Cc2ccc(F)cc2)cc1"
  Cmax [ng/mL]: 1100

---

RUN DESCRIPTION: Oral bioavailability in Sprague-Dawley rat at 10 mg/kg measured for 24 hrs
Assay type: ADME, organism-based
CONDITION SUMMARY: in vivo
Here the recorded bioavailability is given for each entry.

- GIVEN SMILES: "O=C(O)c1cc(-c2ccc(C3CCNCC3)cc2)c2ccc(-c3ccc(C(F)(F)F)cc3)cc2c1"
  UNIT ABBREV: "%"
  bioavailability: 5
- GIVEN SMILES: "Cc1ccc(C(=O)Nc2cc(C(=O)O)nn2Cc2ccc(F)cc2)cc1"
  UNIT ABBREV: "%"
  bioavailability: 43.2

---

RUN DESCRIPTION: AUC (0 to infinity) in Sprague-Dawley rat at 2.5 mg/kg, iv measured for 24 hrs
Format: ADME, organism-based
Design: time 24 hrs, dose 2.5 mg/kg, route iv
CONDITION SUMMARY: in vivo
PARAMETER: AUC(0-inf) (ng·h/mL)

- GIVEN SMILES: "Cc1ccc(C(=O)Nc2cc(C(=O)O)nn2Cc2ccc(F)cc2)cc1"
  PARAMETER: "AUC(0-inf)"
  REPORTED MEASUREMENT: 2600

---

RUN DESCRIPTION: Half life in Sprague-Dawley rat at 10 mg/kg, po measured for 24 hrs
Assay type: ADME, organism-based
CONDITION SUMMARY: in vivo
PARAMETER: half-life (h)

- GIVEN SMILES: "Cc1ccc(C(=O)Nc2cc(C(=O)O)nn2Cc2ccc(F)cc2)cc1"
  REPORTED MEASUREMENT: 4.57

---

MEASUREMENT TARGET: P2Y purinoceptor 12 (Homo sapiens)
Sequence (Q9H244 whole entry): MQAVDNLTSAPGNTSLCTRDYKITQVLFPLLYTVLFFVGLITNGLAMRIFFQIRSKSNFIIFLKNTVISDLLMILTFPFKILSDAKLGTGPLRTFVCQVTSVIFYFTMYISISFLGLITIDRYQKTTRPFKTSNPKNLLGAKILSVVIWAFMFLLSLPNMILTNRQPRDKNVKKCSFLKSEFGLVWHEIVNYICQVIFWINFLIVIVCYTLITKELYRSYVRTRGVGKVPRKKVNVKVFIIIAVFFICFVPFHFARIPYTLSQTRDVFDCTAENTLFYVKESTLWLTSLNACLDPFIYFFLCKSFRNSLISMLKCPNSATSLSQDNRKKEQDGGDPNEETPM
RUN DESCRIPTION: Antagonist activity at P2Y12R (unknown origin) expressed in CHO cells assessed as inhibition of forskolin-stimulated cAMP accumulation incubated for 15 mins in presence of IBMX by chromatography
PARAMETER: IC50

- MOLECULE: "O=C(O)c1cc(-c2ccc(C3CCNCC3)cc2)c2ccc(-c3ccc(C(F)(F)F)cc3)cc2c1 [PPTN]"
  MEASUREMENT TARGET: "P2Y purinoceptor 12 (Homo sapiens)"
  PARAMETER: "IC50"
  REPORTED MEASUREMENT: "> 10 µM"

---

RUN DESCRIPTION: Aqueous solubility of the compound in double distilled water at pH 7 incubated for 24 hrs by UV-3000 absorption spectrometry analysis
Type: physicochemical
CONDITION SUMMARY: double distilled water, pH 7

- GIVEN SMILES: "O=C(O)c1cc(-c2ccc(C3CCNCC3)cc2)c2ccc(-c3ccc(C(F)(F)F)cc3)cc2c1"
  REL: "<"
  solubility at 24 h, µg/mL: 5
- GIVEN SMILES: "Cc1ccc(C(=O)Nc2cc(C(=O)O)cc(-c3ccoc3)c2)cc1"
  REL: "="
  solubility at 24 h, µg/mL: 77.6

---

MEASUREMENT TARGET: P2Y purinoceptor 14 (Homo sapiens) (UniProt Q15391)
Sequence (Q15391 whole entry): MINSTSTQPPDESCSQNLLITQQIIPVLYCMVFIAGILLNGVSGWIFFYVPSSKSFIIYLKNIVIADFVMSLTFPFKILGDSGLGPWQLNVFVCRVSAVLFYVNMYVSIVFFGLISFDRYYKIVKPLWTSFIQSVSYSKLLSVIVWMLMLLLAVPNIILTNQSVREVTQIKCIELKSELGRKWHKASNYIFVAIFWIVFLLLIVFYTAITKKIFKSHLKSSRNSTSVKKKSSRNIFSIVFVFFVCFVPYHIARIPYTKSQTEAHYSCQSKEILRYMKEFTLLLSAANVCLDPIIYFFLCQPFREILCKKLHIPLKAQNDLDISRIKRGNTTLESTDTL
CONDITION SUMMARY: HEK293, dose 100.0 nM

- GIVEN SMILES: "O=C(Nc1cc(C(=O)O)nn1Cc1ccc(F)cc1)c1cccnc1"
  MEASUREMENT TARGET: "P2Y purinoceptor 14 (Homo sapiens) (UniProt Q15391)"
  inhibition: "27.4%"
- GIVEN SMILES: "Cc1ccccc1C(=O)Nc1cc(C(=O)O)nn1Cc1ccc(F)cc1"
  MEASUREMENT TARGET: "P2Y purinoceptor 14 (Homo sapiens) (UniProt Q15391)"
  inhibition: "28.5%"
- GIVEN SMILES: "CC(C)(C)c1ccc(C(=O)Nc2cc(C(=O)O)nn2Cc2ccc(F)cc2)cc1"
  MEASUREMENT TARGET: "P2Y purinoceptor 14 (Homo sapiens) (UniProt Q15391)"
  inhibition: "3.05%"
- GIVEN SMILES: "O=C(Nc1cc(C(=O)O)nn1Cc1ccc(F)cc1)c1ccc(C(F)(F)F)cc1"
  MEASUREMENT TARGET: "P2Y purinoceptor 14 (Homo sapiens) (UniProt Q15391)"
  inhibition: "31.4%"
- GIVEN SMILES: "O=C(Nc1cc(C(=O)O)nn1Cc1ccc(F)cc1)c1ccncc1"
  MEASUREMENT TARGET: "P2Y purinoceptor 14 (Homo sapiens) (UniProt Q15391)"
  inhibition: "32.5%"
- GIVEN SMILES: "N#Cc1ccc(C(=O)Nc2cc(C(=O)O)nn2Cc2ccc(F)cc2)cc1"
  MEASUREMENT TARGET: "P2Y purinoceptor 14 (Homo sapiens) (UniProt Q15391)"
  inhibition: "22.4%"
- GIVEN SMILES: "Cc1ccc(CCC(=O)Nc2cc(C(=O)O)nn2Cc2ccc(F)cc2)cc1"
  MEASUREMENT TARGET: "P2Y purinoceptor 14 (Homo sapiens) (UniProt Q15391)"
  inhibition: "14.4%"
- GIVEN SMILES: "Cc1ccc(CC(=O)Nc2cc(C(=O)O)nn2Cc2ccc(F)cc2)cc1"
  MEASUREMENT TARGET: "P2Y purinoceptor 14 (Homo sapiens) (UniProt Q15391)"
  inhibition: "28.5%"
- GIVEN SMILES: "O=C(O)c1cc(NC(=O)c2ccccc2F)n(Cc2ccc(F)cc2)n1"
  MEASUREMENT TARGET: "P2Y purinoceptor 14 (Homo sapiens) (UniProt Q15391)"
  inhibition: "20.1%"
- GIVEN SMILES: "O=C(Nc1cc(C(=O)O)nn1Cc1ccc(F)cc1)c1cccc(F)c1"
  MEASUREMENT TARGET: "P2Y purinoceptor 14 (Homo sapiens) (UniProt Q15391)"
  inhibition: "25.2%"

---

RUN DESCRIPTION: Metabolic stability in rat liver microsomes assessed as elimination rate constant at 2 ug/ml preincubated for 5 mins followed by NADPH addition and measured upto 45 mins by LC-MS/MS analysis
Type: ADME, Microsome
CONDITION SUMMARY: dose 2 µg/ml, time < 50 min
PARAMETER: k el at 0.75 h, 2 ug/ml (s⁻¹)

- GIVEN SMILES: "Cc1ccc(C(=O)Nc2cc(C(=O)O)nn2Cc2ccc(F)cc2)cc1"
  UNIT ABBREV: "s⁻¹"
  REPORTED MEASUREMENT: "6.67e-05"
